# study-system: Cysteine protease B CPB2.8ΔCTE (Leishmania mexicana)
# test: Inhibition of Leishmania mexicana Cysteine protease B (CPB2.8deltaCTE) was obtained in a solution-phase assay
pKi: −log10 of the molar value.
measured-quantity: pKi

Completed entries (count: 2):
* CC[C@H](C)[C@H](N)C(=O)N[C@@H](CC(=O)O)C(=O)NCC(=O)N[C@@H](CCCCN)CN[C@@H](CC(C)C)C(=O)N[C@@H](Cc1ccc(O)cc1)C(=O)N[C@@H](C)C(=O)N1CCC[C@H]1C(=O)O | 5.28
* CSCC[C@H](NC(=O)[C@H](Cc1ccc(O)cc1)NC[C@H](Cc1ccccc1)NC(=O)[C@H](CC(C)C)NC(=O)[C@H](C)NC(=O)[C@@H](N)CC1CCCCC1)C(=O)N[C@@H](Cc1ccc(O)cc1)C(=O)N[C@@H](Cc1ccc(O)cc1)C(=O)O | 5.96

1 = NCCCC[C@H](NC(=O)[C@H](CC(N)=O)NC(=O)[C@H](Cc1ccccc1)NC(=O)[C@H](CO)NC[C@H](CCCN=C(N)N)NC(=O)[C@H](Cc1ccccc1)NC(=O)[C@H](CCCCN)NC(=O)[C@@H]1CCCN1)C(=O)O
2 = CC[C@H](C)[C@H](NC(=O)[C@H](CC(C)C)NC[C@H](Cc1ccccc1)NC(=O)CNC(=O)[C@H](CCCCN)NC(=O)[C@@H](N)CC(=O)O)C(=O)N[C@H](C(=O)N[C@@H](CCCCN)C(=O)O)C(C)C
Incoming: From the items above, decide which of 1 and 2 has the lower pKi reading. Write down the label attached to your selection.
Outgoing: 2

###

# study-system: Cysteine protease B CPB2.8ΔCTE (Leishmania mexicana)
# test: Inhibition of Leishmania mexicana Cysteine protease B (CPB2.8deltaCTE) was obtained in a solution-phase assay
measured-quantity: Ki (µM)

Recorded Ki, per entry:
* CC[C@H](C)[C@H](NC(=O)[C@H](CCSC)NC(=O)[C@H](CO)NC(=O)[C@H](CC1CCCCC1)NC[C@H](Cc1ccccc1)NC(=O)[C@H](CC1CCCCC1)NC(=O)[C@H](CO)NC(=O)[C@@H](N)CC(=O)O)C(=O)O | 10.1
* CC[C@H](C)[C@H](NC(=O)[C@H](CC(N)=O)NC(=O)[C@H](Cc1ccccc1)NC[C@H](CCCCN)NC(=O)[C@H](CC1CCCCC1)NC(=O)[C@H](CC1CCCCC1)NC(=O)[C@@H](N)CC1CCCCC1)C(=O)N[C@@H](CCCCN)C(=O)O | 6.3

a = CC[C@H](C)[C@H](NC(=O)[C@H](C)NC[C@H](Cc1ccccc1)NC(=O)[C@H](CCCNC(=N)N)NC(=O)[C@H](Cc1c[nH]c2ccccc12)NC(=O)[C@@H](N)CCSC)C(=O)N[C@H](C(=O)N[C@H](C(=O)O)[C@@H](C)O)[C@@H](C)CC
b = C[C@H](NC[C@H](CCCCN)NC(=O)[C@H](Cc1ccccc1)NC(=O)[C@H](CCCCN)NC(=O)[C@@H](N)CC(=O)O)C(=O)N[C@@H](CC1CCCCC1)C(=O)NCC(=O)N[C@@H](CCCCN)C(=O)O
Incoming: Sort a and b by Ki descending and give the first. Please identify the chosen entry by its label.
Outgoing: a
(a: 6.5 µM, b: 0.6 µM)

###

# study-system: Cysteine protease B CPB2.8ΔCTE (Leishmania mexicana)
# test: Inhibition of Leishmania mexicana Cysteine protease B (CPB2.8deltaCTE) was obtained in a solution-phase assay
measured-quantity: Ki (µM)

- CC[C@H](C)[C@H](NC(=O)[C@H](C)NC(=O)[C@@H](N)CC1CCCCC1)C(=O)N[C@H](CN[C@@H](Cc1ccc(O)cc1)C(=O)N[C@@H](CCSC)C(=O)N[C@@H](Cc1ccc(O)cc1)C(=O)N[C@@H](Cc1ccc(O)cc1)C(=O)O)Cc1ccccc1: 0.1
- C[C@H](NC[C@H](Cc1ccccc1)NC(=O)[C@H](CCCCN)NC(=O)[C@H](CCCCN)NC(=O)[C@@H](N)CC(=O)O)C(=O)N[C@@H](CC1CCCCC1)C(=O)NCC(=O)N[C@@H](CCCCN)C(=O)O: 31.1

A = CC(C)C[C@H](NC[C@H](Cc1ccccc1)NC(=O)[C@H](Cc1cnc[nH]1)NC(=O)[C@H](CCCCN)NC(=O)[C@@H](N)CC(=O)O)C(=O)N[C@@H](CC(C)C)C(=O)N[C@H](C(=O)N[C@@H](CCCCN)C(=O)O)C(C)C
B = CC[C@H](C)[C@H](N)C(=O)N[C@H](C(=O)NCC(=O)N[C@H](CN[C@@H](Cc1ccc(O)cc1)C(=O)N[C@H](C(=O)N[C@H](C(=O)N[C@@H](C)C(=O)O)C(C)C)[C@@H](C)CC)Cc1ccccc1)[C@@H](C)O
Incoming: # query: argmin of Ki over A and B Please respond with the label that marks your chosen entry.
Outgoing: A

###

# study-system: Cysteine protease B CPB2.8ΔCTE (Leishmania mexicana)
# test: Inhibition of Leishmania mexicana Cysteine protease B (CPB2.8deltaCTE) was obtained in a solution-phase assay
measured-quantity: pKi
Hey, just a heads up that pKi is the negative log base 10 of the concentration in molar.

Incoming: Look up and report pKi, with Cysteine protease B CPB2.8ΔCTE (Leishmania mexicana) as system, for "H-AIWYWAAV-OH"
Outgoing: 4.35
